# target_system: PDE6D (Homo sapiens, UniProt O43924+Q96SW2)
# Construct: endogenous in cells; host or cells: MV-4-11
# Sequence (O43924 whole entry): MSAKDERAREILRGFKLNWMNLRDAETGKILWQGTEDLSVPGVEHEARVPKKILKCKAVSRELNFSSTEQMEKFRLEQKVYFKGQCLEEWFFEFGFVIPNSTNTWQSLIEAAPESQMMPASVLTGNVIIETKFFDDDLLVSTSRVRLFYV
# Sequence (Q96SW2 whole entry): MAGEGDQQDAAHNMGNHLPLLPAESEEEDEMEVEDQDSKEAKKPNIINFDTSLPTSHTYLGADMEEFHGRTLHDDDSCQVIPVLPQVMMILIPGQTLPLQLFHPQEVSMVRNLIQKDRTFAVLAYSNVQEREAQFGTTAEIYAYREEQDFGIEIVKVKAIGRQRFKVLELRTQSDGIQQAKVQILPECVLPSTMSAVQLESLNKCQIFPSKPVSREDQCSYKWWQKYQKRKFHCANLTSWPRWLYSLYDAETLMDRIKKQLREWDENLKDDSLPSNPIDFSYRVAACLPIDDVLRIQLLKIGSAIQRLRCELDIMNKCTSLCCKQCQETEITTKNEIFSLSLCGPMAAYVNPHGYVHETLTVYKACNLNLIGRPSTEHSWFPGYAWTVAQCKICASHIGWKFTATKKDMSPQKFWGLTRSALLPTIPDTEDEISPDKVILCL
# Sequence (Q16531 whole entry partner): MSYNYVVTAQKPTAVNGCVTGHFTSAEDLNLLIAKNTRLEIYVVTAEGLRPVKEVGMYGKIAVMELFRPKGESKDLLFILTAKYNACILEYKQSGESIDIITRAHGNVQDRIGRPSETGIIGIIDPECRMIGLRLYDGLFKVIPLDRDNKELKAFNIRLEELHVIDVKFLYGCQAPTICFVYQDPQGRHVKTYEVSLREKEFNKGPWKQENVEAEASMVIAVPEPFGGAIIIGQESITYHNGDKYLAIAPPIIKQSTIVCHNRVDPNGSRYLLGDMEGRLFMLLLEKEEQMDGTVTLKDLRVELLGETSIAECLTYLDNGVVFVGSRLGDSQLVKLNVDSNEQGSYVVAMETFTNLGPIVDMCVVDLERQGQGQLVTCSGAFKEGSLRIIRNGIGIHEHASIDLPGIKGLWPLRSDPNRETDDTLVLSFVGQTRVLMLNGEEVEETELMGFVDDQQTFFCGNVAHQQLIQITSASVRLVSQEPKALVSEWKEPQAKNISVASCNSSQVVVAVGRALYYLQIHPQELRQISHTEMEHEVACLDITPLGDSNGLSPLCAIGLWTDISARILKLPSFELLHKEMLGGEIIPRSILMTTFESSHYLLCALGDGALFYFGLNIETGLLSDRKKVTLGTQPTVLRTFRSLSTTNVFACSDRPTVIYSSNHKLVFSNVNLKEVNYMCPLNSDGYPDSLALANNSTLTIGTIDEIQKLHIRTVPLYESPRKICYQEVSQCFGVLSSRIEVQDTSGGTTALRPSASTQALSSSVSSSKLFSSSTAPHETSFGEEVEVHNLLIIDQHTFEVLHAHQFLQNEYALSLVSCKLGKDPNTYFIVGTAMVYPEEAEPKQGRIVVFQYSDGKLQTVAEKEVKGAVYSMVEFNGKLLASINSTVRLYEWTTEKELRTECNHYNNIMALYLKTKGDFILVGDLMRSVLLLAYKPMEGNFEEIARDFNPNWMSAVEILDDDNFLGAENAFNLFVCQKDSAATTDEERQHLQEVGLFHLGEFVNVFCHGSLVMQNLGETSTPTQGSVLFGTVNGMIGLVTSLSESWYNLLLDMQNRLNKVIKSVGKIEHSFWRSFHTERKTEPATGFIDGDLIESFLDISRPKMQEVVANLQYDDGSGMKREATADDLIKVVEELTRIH
# experiment_summary: Western blot, degradation of cellular PDE6D in MV-4-11 cells
# Assay type: cell-based
# measurement_parameters: MV4-11; tested at 1 μM, MV-4-11 cells, 6-8 hours; read-out: % Degradation compared to DMSO, PDE6D
attribute_measured: Dmax at 1 µM

[
  {
    "molecule": "O=C1CCC(N2Cc3c(cc(F)cc3C3CC3)C2=O)C(=O)N1 (stereo not drawn) [Compound 5]",
    "target_system": "PDE6D (Homo sapiens, UniProt O43924+Q96SW2)",
    "attribute_measured": "Dmax at 1 µM",
    "data_value": "≥ 75%"
  },
  {
    "molecule": "C[C@H](c1cccc2c1CN(C1CCC(=O)NC1=O)C2=O)C(F)(F)F (stereo partly drawn) [Compound 31]",
    "target_system": "PDE6D (Homo sapiens, UniProt O43924+Q96SW2)",
    "attribute_measured": "Dmax at 1 µM",
    "data_value": "< 25%"
  },
  {
    "molecule": "O=C1CCC(N2Cc3c(cc(F)cc3C3CC4CCC3C4)C2=O)C(=O)N1 (stereo not drawn) [Compound 25]",
    "target_system": "PDE6D (Homo sapiens, UniProt O43924+Q96SW2)",
    "attribute_measured": "Dmax at 1 µM",
    "data_value": "50 to 75%"
  },
  {
    "molecule": "O=C1CCC(N2Cc3c(cc(F)cc3C3CCC(F)(F)CC3)C2=O)C(=O)N1 (stereo not drawn) [Compound 11]",
    "target_system": "PDE6D (Homo sapiens, UniProt O43924+Q96SW2)",
    "attribute_measured": "Dmax at 1 µM",
    "data_value": "≥ 75%"
  },
  {
    "molecule": "C[C@H](c1cc(F)cc2c1CN(C1CCC(=O)NC1=O)C2=O)C(F)(F)F (stereo partly drawn) [Compound 23]",
    "target_system": "PDE6D (Homo sapiens, UniProt O43924+Q96SW2)",
    "attribute_measured": "Dmax at 1 µM",
    "data_value": "25 to 50%"
  },
  {
    "molecule": "CC(C)c1cc(F)cc2c1CN(C1CCC(=O)NC1=O)C2=O (stereo not drawn) [Compound 34]",
    "target_system": "PDE6D (Homo sapiens, UniProt O43924+Q96SW2)",
    "attribute_measured": "Dmax at 1 µM",
    "data_value": "≥ 75%"
  },
  {
    "molecule": "O=C1CCC(N2Cc3c(cc(F)cc3C3CCCCC3)C2=O)C(=O)N1 (stereo not drawn) [Compound 3]",
    "target_system": "PDE6D (Homo sapiens, UniProt O43924+Q96SW2)",
    "attribute_measured": "Dmax at 1 µM",
    "data_value": "≥ 75%"
  },
  {
    "molecule": "O=C1CCC(N2Cc3c(cccc3C3CC3)C2=O)C(=O)N1 (stereo not drawn) [Compound 13]",
    "target_system": "PDE6D (Homo sapiens, UniProt O43924+Q96SW2)",
    "attribute_measured": "Dmax at 1 µM",
    "data_value": "50 to 75%"
  },
  {
    "molecule": "O=C1CCC(N2Cc3c(cc(F)cc3C3CCC3)C2=O)C(=O)N1 (stereo not drawn) [Compound 20]",
    "target_system": "PDE6D (Homo sapiens, UniProt O43924+Q96SW2)",
    "attribute_measured": "Dmax at 1 µM",
    "data_value": "≥ 75%"
  }
]

----------
# Tested on: IL-1β
# experiment_summary: IL-1β inhibition, LPS-induced PBMCs or CD14+ monocytes, Meso Scale assay
# Assay type: cell-based
# measurement_parameters: tested at 10 μM, LPS 100 ng/mL 18-24 h; read-out: % Inhibition compared to DMSO, IL-1β
# Description: Either frozen primary blood mononuclear cells (PBMCs) or frozen CD14+ mobilized peripheral blood monocytes were purchased from AllCells (PB003F, Normal Peripheral Blood MNC (Alameda, Calif.)). Cells were quick thawed, washed 1-time with RPMI-1640 (10% FBS/1% Pen-Strep) and plated in 96 well plates at 200,000 cells per well. […] The supernatant was analyzed for IL-1β, IL-6, and TNFα, using Meso Scale assay according to manufacturer's protocol. […]

[
  {
    "compound": "O=C1CCC(N2Cc3c(cc(F)cc3C3CC4CCC3C4)C2=O)C(=O)N1 (stereo not shown)",
    "inhibition at 10 µM": "25 to 50%"
  },
  {
    "compound": "O=C1CCC(N2Cc3c(cc(F)c(F)c3C3CCCC3)C2=O)C(=O)N1 (stereo not shown)",
    "inhibition at 10 µM": "< 10%"
  },
  {
    "compound": "CC1(N2Cc3c(cc(F)cc3C3CCCC3)C2=O)CCC(=O)NC1=O (stereo not shown)",
    "inhibition at 10 µM": "10 to 25%"
  },
  {
    "compound": "O=C1CCC(N2Cc3c(cc(F)cc3C3CCC(F)(F)CC3)C2=O)C(=O)N1 (stereo not shown)",
    "inhibition at 10 µM": "< 10%"
  },
  {
    "compound": "CC1(C)CC=C(c2cc(F)cc3c2CN(C2CCC(=O)NC2=O)C3=O)CC1 (stereo not shown)",
    "inhibition at 10 µM": "< 10%"
  },
  {
    "compound": "O=C1CCC(N2Cc3c(cc(C(F)(F)F)cc3C3CCCC3)C2=O)C(=O)N1 (stereo not shown)",
    "inhibition at 10 µM": "< 10%"
  },
  {
    "compound": "O=C1CCC(N2Cc3c(cccc3C3CCCC3)C2=O)C(=O)N1 (stereo not shown)",
    "inhibition at 10 µM": "10 to 25%"
  },
  {
    "compound": "C[C@H](c1cccc2c1CN(C1CCC(=O)NC1=O)C2=O)C(F)(F)F (stereo partly shown)",
    "inhibition at 10 µM": "< 10%"
  },
  {
    "compound": "O=C1CCC(N2Cc3c(ccc(F)c3C3CCCC3)C2=O)C(=O)N1 (stereo not shown)",
    "inhibition at 10 µM": "< 10%"
  },
  {
    "compound": "O=C1CCC(N2Cc3c(cc(F)cc3C3CCCCC3)C2=O)C(=O)N1 (stereo not shown)",
    "inhibition at 10 µM": "< 10%"
  },
  {
    "compound": "O=C1CCC(N2Cc3c(cc(Cl)cc3C3CCCC3)C2=O)C(=O)N1 (stereo not shown)",
    "inhibition at 10 µM": "< 10%"
  },
  {
    "compound": "C[C@@H](c1cc(F)cc2c1CN(C1CCC(=O)NC1=O)C2=O)C(F)(F)F (stereo partly shown)",
    "inhibition at 10 µM": "10 to 25%"
  },
  {
    "compound": "CCC1(N2Cc3c(cc(F)cc3C3CCCC3)C2=O)CCC(=O)NC1=O (stereo not shown)",
    "inhibition at 10 µM": "10 to 25%"
  },
  {
    "compound": "O=C1CCC(N2Cc3c(cc(F)cc3C3CC3)C2=O)C(=O)N1 (stereo not shown)",
    "inhibition at 10 µM": "> 50%"
  },
  {
    "compound": "Cc1c(F)cc2c(c1C1CCCC1)CN(C1CCC(=O)NC1=O)C2=O (stereo not shown)",
    "inhibition at 10 µM": "< 10%"
  },
  {
    "compound": "C[C@@H](c1cccc2c1CN(C1CCC(=O)NC1=O)C2=O)C(F)(F)F (stereo partly shown)",
    "inhibition at 10 µM": "< 10%"
  },
  {
    "compound": "O=C1CCC(N2Cc3c(cc(F)cc3C3=CCC(F)(F)CC3)C2=O)C(=O)N1 (stereo not shown)",
    "inhibition at 10 µM": "< 10%"
  },
  {
    "compound": "O=C1CCC(N2Cc3c(cc(F)cc3C(F)F)C2=O)C(=O)N1 (stereo not shown)",
    "inhibition at 10 µM": "10 to 25%"
  },
  {
    "compound": "O=C1CCC(N2C(=O)c3cc(F)cc(C4CCCC4)c3C2=O)C(=O)N1 (stereo not shown)",
    "inhibition at 10 µM": "< 10%"
  },
  {
    "compound": "O=C1CCC(N2Cc3c(cc(F)cc3C3CCC3)C2=O)C(=O)N1 (stereo not shown)",
    "inhibition at 10 µM": "< 10%"
  },
  {
    "compound": "O=C1CC(N2Cc3c(cc(F)cc3C3CCCC3)C2=O)C(=O)N1 (stereo not shown)",
    "inhibition at 10 µM": "< 10%"
  },
  {
    "compound": "CC1(C)CCC(c2cc(F)cc3c2CN(C2CCC(=O)NC2=O)C3=O)CC1 (stereo not shown)",
    "inhibition at 10 µM": "< 10%"
  },
  {
    "compound": "CC1(C)CCCC1c1cc(F)cc2c1CN(C1CCC(=O)NC1=O)C2=O (stereo not shown)",
    "inhibition at 10 µM": "< 10%"
  },
  {
    "compound": "O=C1CCC(N2Cc3c(cccc3C3CC3)C2=O)C(=O)N1 (stereo not shown)",
    "inhibition at 10 µM": "25 to 50%"
  },
  {
    "compound": "C[C@H](c1cc(F)cc2c1CN(C1CCC(=O)NC1=O)C2=O)C(F)(F)F (stereo partly shown)",
    "inhibition at 10 µM": "< 10%"
  },
  {
    "compound": "COc1cc2c(c(C3CCCC3)c1)CN(C1CCC(=O)NC1=O)C2=O (stereo not shown)",
    "inhibition at 10 µM": "10 to 25%"
  },
  {
    "compound": "CC1CC(=O)NC(=O)C1N1Cc2c(cc(F)cc2C2CCCC2)C1=O (stereo not shown)",
    "inhibition at 10 µM": "10 to 25%"
  },
  {
    "compound": "O=C1CCC(N2Cc3c(cc(F)cc3C3CCCC3)C2=O)C(=O)N1 (stereo not shown)",
    "inhibition at 10 µM": "25 to 50%"
  },
  {
    "compound": "O=C1CCC(N2Cc3c(cc(F)cc3C3CCCCCC3)C2=O)C(=O)N1 (stereo not shown)",
    "inhibition at 10 µM": "< 10%"
  },
  {
    "compound": "O=C1CCC(N2Cc3c(C4CCCC4)ccc(F)c3C2=O)C(=O)N1 (stereo not shown)",
    "inhibition at 10 µM": "< 10%"
  },
  {
    "compound": "O=C1CCC(N2C(=O)c3cccc(C4CCCC4)c3C2=O)C(=O)N1 (stereo not shown)",
    "inhibition at 10 µM": "10 to 25%"
  }
]
